Molecular target: CDK9 (Homo sapiens)
Construct: endogenous in cells; host or cells: MDA-MB-231
Experiment: CDK protein degradation activity (Western blotting), CDK9
Type: cell-based
Settings: MDA-MB-231 cells, 1 μM, 16 hours, Western blot
Method: In order to evaluate the CDK protein degradation activity of the compounds according to the present invention, the following experiment was conducted. MDA-MB-231 cells were seeded at 5×10^5 cells per well in a 6-well plate. The next day, the compounds were treated in each well to achieve final concentrations of 100 nM, 1 μM, and 10 μM. […] Cell lysates were quantified and separated by size using sodium dodecyl sulfate-polyacrylamide gel electrophoresis (SDS-PAGE). […]
Measured Property: Enzyme degradation CDK9 (% remaining) @ 1 μM

Examples with their reported Enzyme degradation CDK9 (% remaining) @ 1 μM follow.
Compound | Value Measured
O=C1CCC(N2C(=O)c3cc(F)c(N4CCC5(CC4)CC(N4CCN(c6ccc(Nc7ncnc8c7ncn8[C@H]7C[C@@H](NC(=O)c8c(Cl)cccc8Cl)C7)cc6)CC4)C5)cc3C2=O)C(=O)N1 (some centres unmarked) [Compound 316] | 0/0/0%
O=C1CC[C@H](n2nnc3ccc(N4CCC(CCN5CCN(c6ccc(Nc7ncnc8c7ncn8C7CC(NC(=O)Cc8ccccc8)C7)cc6)CC5)CC4)cc3c2=O)C(=O)N1 (some centres unmarked) [Compound 324] | 0/0/0%
Cc1cccc(C(=O)N[C@H]2C[C@@H](n3cnc4c(NCc5ccc(OCCCN6CCN(C(=O)CNc7cccc8c7C(=O)N([C@H]7CCC(=O)NC7=O)C8=O)CC6)cc5)ncnc43)C2)n1 [Compound 115] | 0/0/0%
Cc1cccc(C(=O)N[C@H]2C[C@@H](n3cnc4c(Nc5ccc(N6CCN(C7CC8(CCN(C(=O)C9CCN(c%10cc%11c(cc%10F)C(=O)N([C@H]%10CCC(=O)NC%10=O)C%11=O)CC9)CC8)C7)CC6)cc5)ncnc43)C2)n1 [Compound 465] | 0/0/0%

Turning to the following compound.
## Task Need Enzyme degradation CDK9 (% remaining) @ 1 μM, item O=C1CC[C@H](n2nnc3ccc(N4CCC(CCCN5CCN(c6ccc(Nc7ncnc8c7ncn8C7CC(NC(=O)Cc8ccccc8)C7)cc6)CC5)CC4)cc3c2=O)C(=O)N1 (some centres unmarked) [Compound 351]
## Result 10/10/10%

---

biological target: CDK2 (Homo sapiens, UniProt P24941); construct: endogenous in cells; host or cells: MDA-MB-231; assay: CDK protein degradation activity (Western blotting), CDK2; assay type: cell-based; details: MDA-MB-231 cells, 10 μM, 16 hours, Western blot
Measured Property: Enzyme degradation CDK2 (% remaining) @ 10 μM

The following compounds have reported results that may help.
Compound | Value Measured
O=C1CCC(N2C(=O)c3cc(F)c(N4CCC(C(=O)N5CCC(CCN6CCN(c7ccc(Nc8ncnc9c8ncn9[C@H]8C[C@@H](NC(=O)c9c(Cl)cccc9Cl)C8)cc7)CC6)CC5)CC4)cc3C2=O)C(=O)N1 (stereo partly drawn) | 30/30/30%
O=C1CC[C@H](N2C(=O)c3ccc(OCC(=O)N4CCC5(CC4)CC(N4CCC(c6ccc(Nc7ncnc8c7ncn8[C@H]7C[C@@H](NC(=O)Cc8ccccc8)C7)cc6)CC4)C5)cc3C2=O)C(=O)N1 | 20/20/20%

From here, focus on the item given below.
## Task Which Enzyme degradation CDK2 (% remaining) @ 10 μM is reported for this compound? Cc1cccc(C(=O)N[C@H]2C[C@@H](n3cnc4c(NC5CCN(CCC6CCN(c7cccc8c7C(=O)N([C@H]7CCC(=O)CC7=O)C8=O)CC6)CC5)ncnc43)C2)n1
## Result 100/100/100%

---

target: CDK2 (Homo sapiens, UniProt P24941); construct: endogenous in cells; host or cells: MDA-MB-231; assay: CDK protein degradation activity (Western blotting), CDK2; assay type: cell-based; settings: MDA-MB-231 cells, 0.1 μM, 16 hours, Western blot
Measured Property: Enzyme degradation CDK2 (% remaining) @ 0.1 μM (%)

[I] Cc1cccc(C(=O)N[C@H]2C[C@@H](n3cnc4c(NCc5cccc(N6CCN(CC7CCN(c8cccc9c8C(=O)N([C@H]8CCC(=O)NC8=O)C9=O)CC7)CC6)c5)ncnc43)C2)n1
[II] O=C1CCC(N2C(=O)c3cc(F)c(N4CCC5(CC4)CC(N4CCN(c6ccc(Nc7ncnc8c7ncn8[C@H]7C[C@@H](NC(=O)c8c(Cl)cccc8Cl)C7)cc6)CC4)C5)cc3C2=O)C(=O)N1 (some centres unmarked)
## Task Hi there, can you help? I need to know whether I or II has lower measured Enzyme degradation CDK2 (% remaining) @ 0.1 μM. Give the chosen item's label as your response.
## Result II
(II: 30%, I: 100%)

---

molecular target: CDK2 (Homo sapiens, UniProt P24941); construct: endogenous in cells; host or cells: MDA-MB-231; test: CDK protein degradation activity (Western blotting), CDK2; format: cell-based; details: MDA-MB-231 cells, 10 μM, 16 hours, Western blot
Consider the following compounds and their measured Enzyme degradation CDK2 (% remaining) @ 10 μM readings.

These solved cases illustrate the format of a correct answer.
Compound | Value Measured
O=C1CCC(n2nnc3ccc(N4CCC(CCN5CCN(c6ccc(Nc7ncnc8c7ncn8[C@H]7C[C@@H](NC(=O)c8c(Cl)cccc8Cl)C7)cc6)CC5)CC4)cc3c2=O)C(=O)N1 (stereo partly drawn) | 60/60/60%
O=C1CC[C@H](n2nnc3ccc(N4CCN(C5CC6(CCN(c7ccc(Nc8ncnc9c8ncn9C8CC(NC(=O)Cc9ccccc9)C8)cc7)CC6)C5)CC4)cc3c2=O)C(=O)N1 (stereo partly drawn) | 0/0/0%

Let us examine a further case.
## Task Which measured Enzyme degradation CDK2 (% remaining) @ 10 μM value corresponds to O=C1CC[C@H](N2C(=O)c3ccc(N4CC(C(=O)N5CCC(CN6CCC(CCNc7ncnc8c7ncn8[C@H]7C[C@@H](NC(=O)Cc8ccccc8)C7)CC6)CC5)C4)cc3C2=O)C(=O)N1 ?
## Result 40/40/40%

---

Reported Enzyme degradation CDK9 (% remaining) @ 0.1 μM values are given for each entry in this list.
biological target: CDK9 (Homo sapiens, UniProt P50750); construct: endogenous in cells; host or cells: MDA-MB-231; test: CDK protein degradation activity (Western blotting), CDK9; type: cell-based; settings: MDA-MB-231 cells, 0.1 μM, 16 hours, Western blot
Sequence (P50750 whole entry): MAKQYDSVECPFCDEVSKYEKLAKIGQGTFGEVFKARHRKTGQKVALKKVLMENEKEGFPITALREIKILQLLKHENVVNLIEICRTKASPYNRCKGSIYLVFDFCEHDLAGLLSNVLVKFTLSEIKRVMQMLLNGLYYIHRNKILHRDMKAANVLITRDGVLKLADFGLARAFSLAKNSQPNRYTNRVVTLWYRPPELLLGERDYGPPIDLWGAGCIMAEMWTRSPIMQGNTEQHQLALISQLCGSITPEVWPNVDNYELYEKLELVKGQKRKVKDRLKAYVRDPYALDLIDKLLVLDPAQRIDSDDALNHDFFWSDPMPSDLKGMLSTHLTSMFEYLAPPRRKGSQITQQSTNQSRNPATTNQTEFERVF

// worked examples, Enzyme degradation CDK9 (% remaining) @ 0.1 μM included
Compound | Value Measured
O=C1CCN(c2coc3cc(C(=O)N4CCC5(CC4)CC(N4CCN(c6ccc(Nc7ncnc8c7ncn8[C@H]7C[C@@H](NC(=O)Cc8ccccc8)C7)cc6)CC4)C5)ccc23)C(=O)N1 | 0/0/0%
O=C1CCC(N2C(=O)c3ccc(N4CCC(C(=O)N5CCC(CN6CCN(c7ccc(Nc8ncnc9c8ncn9[C@H]8C[C@@H](NC(=O)c9cccc(Cl)n9)C8)cc7)CC6)CC5)CC4)cc3C2=O)C(=O)N1 (stereo partly drawn) | 0/0/0%

Let's switch to this compound now.
## Task Reported Enzyme degradation CDK9 (% remaining) @ 0.1 μM for Cc1cccc(C(=O)N[C@H]2C[C@@H](n3cnc4c(Nc5ccc(N6CCN(C7CC8(CCN(C(=O)C9CCN(c%10cc%11c(cc%10F)C(=O)N([C@H]%10CCC(=O)NC%10=O)C%11=O)CC9)CC8)C7)CC6)cc5)ncnc43)C2)n1 : what is it?
## Result 0/0/0%

---

target: CDK2 (Homo sapiens); construct: endogenous in cells; host or cells: MDA-MB-231; experiment: CDK protein degradation activity (Western blotting), CDK2; assay type: cell-based; conditions: MDA-MB-231 cells, 0.1 μM, 16 hours, Western blot
Reported Enzyme degradation CDK2 (% remaining) @ 0.1 μM values follow for various compounds

## Task GET /values?readout=Enzyme degradation CDK2 (% remaining) @ 0.1 μM&item= O=C1CC[C@H](n2nnc3ccc(N4CCC(CN5CCN(c6ccc(Nc7ncnc8c7ncn8C7CC(NC(=O)Cc8ccccc8)C7)cc6)CC5)CC4)cc3c2=O)C(=O)N1 (stereo partly shown)
## Result 0/0/0%

## Task Another: Cc1cccc(C(=O)N[C@H]2C[C@@H](n3cnc4c(NC5CCN(CCC6CCN(c7cccc8c7C(=O)N([C@H]7CCC(=O)CC7=O)C8=O)CC6)CC5)ncnc43)C2)n1
## Result 100/100/100%

## Task And O=C1CC[C@H](n2nnc3ccc(N4CCC(CN5CCN(c6ccc(Nc7ncnc8c7ncn8[C@H]7C[C@@H](NC(=O)c8cccc(C(F)(F)F)n8)C7)cc6)CC5)CC4)cc3c2=O)C(=O)N1 ?
## Result 10/10/10%

## Task Now this one: O=C1CCC(N2C(=O)c3ccc(N4CCC(C(=O)N5CC(N6CCN(c7ccc(Nc8ncnc9c8ncn9[C@H]8C[C@@H](NC(=O)Cc9ccccc9)C8)cc7)CC6)C5)CC4)cc3C2=O)C(=O)N1 (stereo partly shown)
## Result 30/30/30%
